TARGET: Sushi domains (SD1/2) protein of the GABAB1a (GB1a) subunit, recombinant
Sequence (Q9Z0U4 29-158): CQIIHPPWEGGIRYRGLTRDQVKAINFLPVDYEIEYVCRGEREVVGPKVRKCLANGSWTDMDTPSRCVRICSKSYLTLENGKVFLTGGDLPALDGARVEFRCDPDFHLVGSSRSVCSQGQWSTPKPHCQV
ASSAY TEXT: FP competition
Non-standard residues stand in square brackets, D forms with d. NMeV = CN[C@H](C(=O)O)C(C)C
RECORDED ENDPOINT: Ki (nM)

binder="Ac-ETEFIAWAPTGDED-NH2 […]" value_measured=196
binder="Ac-EDDSDVWWGGA[dD]TD-NH2 […dTD]" value_measured=637
binder=Ac-PWAIVWGP-NH2 value_measured=597
binder="Ac-EDDSD[NMeV]WWGGADTD-NH2 (SMILES CC(=O)N[C@@H](CCC(=O)O)C(=O)N[C@@H](CC(=O)O)C(=O)N[C@@H](CC(=O)O)C(=O)N[C@@H](CO)C(=O)N[C@@H](CC(=O)O)C(=O)N(C)[C@H](C(=O)N[C@@H](Cc1c[nH]c2ccccc12)C(=O)N[C@@H](Cc1c[nH]c2ccccc12)C(=O)NCC(=O)NCC(=O)N[C@@H](C)C(=O)N[C@@H](CC(=O)O)C(=O)N[C@H](C(=O)N[C@@H](CC(=O)O)C(N)=O)[C@@H](C)O)C(C)C) [EDDSD(N-Me-V)WWGGADTD]" value_measured=12300
